# System: Mycobacterium tuberculosis
# Run Description: Antimycobacterial activity against extensively drug-resistant Mycobacterium tuberculosis FJ05195 after 3 to 4 weeks by microplate alamar blue assay
# Assay type: functional
Lab note: anything with MIC90 below 8 µg/mL is marked Condition met; values at 8 µg/mL or higher are marked Condition not met.

compound=O=C(c1ccc2c(c1)OCCO2)C1CCN(Cc2coc(-c3cccnc3)n2)CC1 assigned_class="Condition not met"
compound="NNC(=O)c1ccncc1 [ISONIAZID]" assigned_class="Condition met"
compound=O=C(c1ccc2c(c1)OCCO2)C1CCN(Cc2coc(-c3ccc(C(F)(F)F)cc3)n2)CC1 assigned_class="Condition not met"
compound=O=C(c1ccccc1)C1CCN(Cc2coc(-c3ccc(F)cc3)n2)CC1 assigned_class="Condition met"
compound=O=C(c1ccc2c(c1)OCCO2)C1CCN(Cc2csc(-c3ccc(Cl)cc3)n2)CC1 assigned_class="Condition not met"
compound=Cc1ccc(-c2nc(CN3CCC(C(=O)c4ccc5c(c4)OCCO5)CC3)co2)cc1 assigned_class="Condition not met"
compound=O=C(c1ccc2c(c1)CCCC2)C1CCN(Cc2coc(-c3ccc(F)cc3)n2)CC1 assigned_class="Condition met"
compound=CC(C)(C)c1ccc(-c2nc(CN3CCC(C(=O)c4ccc5c(c4)OCCO5)CC3)co2)cc1 assigned_class="Condition met"
